assay: log P by HPLC on reversed-phase column (EEC directive 79/831 Annex V.A8); type: physicochemical; details: reversed-phase C18 HPLC column; HPLC-MS; reversed-phase C18, 43° C., calibration with alkan-2-ones; read-out: log P
assay-readout: chromatographic logP

>  <compound>
CCS(=O)(=O)CC(=O)c1c([O-])n(Cc2cnc(Cl)s2)c2cccc[n+]12 [Example I-1-042]

>  <assay-readout>
chromatographic logP

>  <reported>
1.38

$$$$
>  <compound>
CCN(CC(=O)c1c([O-])n(Cc2cnc(Cl)s2)c2cccc[n+]12)C(C)=O [Example I-1-040]

>  <assay-readout>
chromatographic logP

>  <reported>
1.49

$$$$
>  <compound>
O=C(Cn1cccn1)c1c([O-])n(Cc2cnc(Cl)s2)c2cccc[n+]12 [Example I-1-009]

>  <assay-readout>
chromatographic logP

>  <reported>
1.47

$$$$
